# Experimental System: Human HER3, endogenous, on human cancer cell lines (SK-Br-3, MCF7, BT-474) (human, UniProt P21860 20-1342)
# Sequence (P21860 20-1342): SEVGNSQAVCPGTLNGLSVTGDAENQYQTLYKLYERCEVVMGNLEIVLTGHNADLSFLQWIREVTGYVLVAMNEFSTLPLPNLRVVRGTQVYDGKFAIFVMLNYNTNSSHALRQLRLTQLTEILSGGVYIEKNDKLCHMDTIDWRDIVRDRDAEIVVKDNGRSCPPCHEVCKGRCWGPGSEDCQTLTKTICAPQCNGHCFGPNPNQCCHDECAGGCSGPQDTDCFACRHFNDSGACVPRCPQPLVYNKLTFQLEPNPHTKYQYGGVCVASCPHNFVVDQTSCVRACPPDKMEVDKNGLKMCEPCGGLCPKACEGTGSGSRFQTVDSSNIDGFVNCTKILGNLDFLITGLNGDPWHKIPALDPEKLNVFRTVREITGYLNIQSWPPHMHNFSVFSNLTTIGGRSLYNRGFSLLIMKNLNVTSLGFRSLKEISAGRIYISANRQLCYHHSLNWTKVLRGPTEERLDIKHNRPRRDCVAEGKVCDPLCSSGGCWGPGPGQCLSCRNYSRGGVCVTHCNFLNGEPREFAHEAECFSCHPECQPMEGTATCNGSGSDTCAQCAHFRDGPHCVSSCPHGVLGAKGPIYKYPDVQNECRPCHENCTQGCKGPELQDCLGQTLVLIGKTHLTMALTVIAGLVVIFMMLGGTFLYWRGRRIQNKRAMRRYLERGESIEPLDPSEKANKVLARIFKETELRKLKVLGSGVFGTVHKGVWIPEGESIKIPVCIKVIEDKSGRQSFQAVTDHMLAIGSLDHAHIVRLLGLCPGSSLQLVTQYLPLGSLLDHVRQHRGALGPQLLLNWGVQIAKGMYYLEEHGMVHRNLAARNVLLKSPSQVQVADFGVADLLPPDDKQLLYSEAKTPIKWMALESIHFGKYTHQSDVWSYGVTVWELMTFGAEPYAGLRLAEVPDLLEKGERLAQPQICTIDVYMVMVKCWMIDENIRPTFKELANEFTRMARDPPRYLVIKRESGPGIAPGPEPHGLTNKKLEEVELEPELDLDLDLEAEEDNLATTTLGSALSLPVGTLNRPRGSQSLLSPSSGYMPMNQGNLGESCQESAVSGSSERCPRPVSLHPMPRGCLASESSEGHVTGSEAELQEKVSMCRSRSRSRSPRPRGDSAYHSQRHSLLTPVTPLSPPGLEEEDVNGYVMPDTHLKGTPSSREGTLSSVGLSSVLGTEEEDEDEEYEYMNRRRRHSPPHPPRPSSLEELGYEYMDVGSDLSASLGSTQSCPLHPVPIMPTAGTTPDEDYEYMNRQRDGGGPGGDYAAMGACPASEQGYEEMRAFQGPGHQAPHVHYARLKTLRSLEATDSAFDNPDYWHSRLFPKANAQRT
# Assay Comment: cell-based or functional assay
A collection of binders and their measured SK-Br-3 pHER3 % inhibition
Express your answer in %, writing the number without its unit.

Binder | Observed
MOR13767 (antibody, human IgG1, kappa, V domains shown, tested as IgG) VH: QVQLVQSGAEVKKPGESLKISCKGSGYSFTTSWVAWVRQMPGKGLEWMGIIYPGQSDTIYSPSFQGQVTISADKSISTAYLQWSSLKASDTAMYYCARVHIIQPPSAWSYNAMDVWGQGTLVTVSS VL: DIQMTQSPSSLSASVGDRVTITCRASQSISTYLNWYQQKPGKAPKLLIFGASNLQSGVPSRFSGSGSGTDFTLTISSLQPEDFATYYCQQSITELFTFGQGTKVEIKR | 78

Turning to the following binder.
[in] Report SK-Br-3 pHER3 % inhibition for MOR13759 (antibody, human IgG1, kappa, V domains shown, tested as IgG) VH: QVQLVQSGAEVKKPGESLKISCKGSGYSFTTTWVAWVRQMPGKGLEWMGIIYPGLSDTIYSPSFQGQVTISADKSISTAYLQWSSLKASDTAMYYCARVHIIQPPSAWSYNAMDVWGQGTLVTVSS VL: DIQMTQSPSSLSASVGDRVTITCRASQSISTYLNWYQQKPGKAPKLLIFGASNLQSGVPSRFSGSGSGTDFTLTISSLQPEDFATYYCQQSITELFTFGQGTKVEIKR please.
[out] 77
